- ASSAY_TARGET: CD137 on Jurkat reporter cells (Promega kit CS196005) (UniProt Q07011)
- Sequence (Q07011 24-255 limits assumed): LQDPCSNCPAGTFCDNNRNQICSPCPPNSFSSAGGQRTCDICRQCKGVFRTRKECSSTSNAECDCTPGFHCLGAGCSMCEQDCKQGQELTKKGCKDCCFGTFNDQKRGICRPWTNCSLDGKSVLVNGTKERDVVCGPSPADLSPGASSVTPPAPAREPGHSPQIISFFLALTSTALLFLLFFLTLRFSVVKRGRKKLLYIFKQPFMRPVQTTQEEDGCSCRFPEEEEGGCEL
- EXPERIMENT_DESCRIPTION: cell-based or functional assay
Starred links: 1 amine or outer side, 2 acyl side, 3 side chain; linkers in the order of their positions; H or OH if unused. Positions of bridges follow the written chain, without caps; N, C: chain ends. Non-standard residues stand in square brackets, D forms with d. Chains are numbered I, II in the order given. No end group written: not given here. TATA = O=C(CC[*:1])N1CN(C(=O)CC[*:2])CN(C(=O)CC[*:3])C1; Hyp = O=C(O)[C@@H]1C[C@@H](O)CN1; hArg = N=C(N)NCCCC[C@H](N)C(=O)O; tBuAla = CC(C)(C)C[C@H](N)C(=O)O; dK(PYA) = not defined here; Nle = CCCC[C@H](N)C(=O)O
OBSERVATION_TYPE: Fold Improvement over Emax (BCY9173), PC3 (fold)
Value expressed in fold; do not type the unit.

BINDER: BCY12724 (linker I:4-I:11-I:18, II:1-II:8-II:15 via TATA; not fully specified (bridges); reading uncertain; also: two CD137 bicycles per complex (EphA2:CD137 1:2)) peptide 1: A[hArg]DC[Hyp]LVNPLCLHP[dD]W[hArg]C peptide 2: Ac-C[tBuAla]PE[dK(PYA)]PYCFADPY[Nle]C
NUMERIC_VALUE: 1.9

Specify reported Fold Improvement over Emax (BCY9173), PC3 for the binder shown: BCY14050 (BCY8928: Ac-(SEQ ID NO: 11)-A; TATA; linker at dLys(PYA)4; BCY13918: A[HArg]D-(SEQ ID NO: 157); TATA; linker at N-terminus) peptide 1: AXDCXLVNPLCLXPDWXC peptide 2: CXPEXPYCFADPYXCA
1.91
